Values from PubChem BioAssay (NCI)

tested on: NCI/ADR-RES ovarian; test: NCI-60 one-dose screen, 48 h; conditions: 10 µM unless noted
Compounds without any hit were thinned out: in the full panel of roughly 83,000, 20% have a hit. The source made the active and inactive calls. How the source made its calls: active means growth percent below 10; inactive means the rest.
Classes used: active, inactive

{"columns": ["compound", "cat"],
 "data": [
  ["O=c1[nH]ccc2nc(N3CCC(O)CC3)nc(Nc3cccc(C(F)(F)F)c3)c12", "inactive"],
  ["CCOc1ccc(Cc2nccc3cc(OCC)c(OCC)cc23)cc1OCC", "inactive"],
  ["O=S(=O)(Nc1cccc2cc(OS(=O)(=O)c3ccccc3)ccc12)c1ccccc1", "inactive"],
  ["Nc1nc(Cl)cc(NCc2ccc(CNc3cc(Cl)nc(N)n3)cc2)n1", "inactive"],
  ["O=C(/C=C/c1ccco1)c1cccc(Nc2nc(Nc3ccccc3)nc(Nc3ccccc3)n2)c1", "inactive"],
  ["C/C(=N/O)c1ccc(NC(=O)Cn2nc(-c3ccc(Cl)cc3)nc2N)cc1", "inactive"],
  ["O=c1nc(N2CCOCC2)oc2c(-c3cccc4ccccc34)cccc12", "inactive"],
  ["S=c1n(CNc2ccc(Cl)nn2)nc(-c2cc(Cl)cc(Cl)c2Cl)n1/N=C/c1ccc(Cl)cc1", "inactive"],
  ["CCC(C)Nc1ccc(N)cc1 (configuration not stated)", "inactive"],
  ["Clc1ccc(CN2COc3c(ccc4cccnc34)C2)cc1Cl", "active"],
  ["CCCN1C(=O)CSC1=Nc1ccc2cc3ccc(N=C4SCC(=O)N4CCC)cc3nc2c1", "inactive"],
  ["CN(CCNCc1ccccn1)CCNCc1ccccn1", "active"],
  ["O=C(O)c1ccccc1C(=O)c1ccc(I)cc1", "inactive"],
  ["COc1ccc(-c2nn(-c3cccc(Cl)c3)cc2-c2cc(-c3ccc(Br)cc3)[nH]c(=O)c2C#N)cc1", "inactive"],
  ["O=C(Nc1ccc(-n2cc(-c3ccncc3)c(-c3ccc(O)c(Cl)c3)n2)cc1)c1ccc(Cl)c(C(F)(F)F)c1", "inactive"],
  ["O=C1CCC(c2c(O)cc(O)c3c(=O)c(O)c(-c4ccc(O)c(O)c4)oc23)N1 (configuration not stated)", "inactive"],
  ["O=[N+]([O-])c1ccc(NS(=O)(=O)c2ccccc2)c2ccccc12", "inactive"],
  ["CCCCOc1c(N)cc(Cl)cc1C(=O)OCCN(CC)CC", "inactive"],
  ["C#C[C@@]1(O)[C@@H](CO)O[C@@H](n2cc(Br)c3c(Cl)ccnc32)[C@@H]1O", "active"],
  ["C#CC(=O)/C=C/CCCCCCC#CC(=O)CCC(=O)C#CCCCCCC/C=C/C(=O)C#C", "inactive"],
  ["COc1ccc(NC(=O)Nc2ccc(-c3ccc(OC)c(OC)c3)nc2C)cc1", "inactive"],
  ["NC(=S)NNC1CCCCC1", "inactive"],
  ["COC(=O)c1ccc2c(c1)Oc1ccc(Cl)cc1-c1cc(C)nn1-2", "inactive"],
  ["CCN(CC)CC(=O)Nc1c(C)cccc1C", "inactive"],
  ["O=C(/C=C/c1ccccc1)Oc1ccc(/C=C/c2cc(OC(=O)/C=C/c3ccccc3)cc(OC(=O)/C=C/c3ccccc3)c2)cc1", "inactive"],
  ["C=CC(=O)NC(=O)Nc1ccccc1Cl", "inactive"],
  ["CCCCOc1c(N)cccc1C(=O)OCCN(CC)CC", "inactive"],
  ["O=c1c2ccccc2sc2c(NCCCNCCO)nc3ccccc3c12", "inactive"],
  ["CCOC(=O)c1noc2c1CCc1c-2cn(Cc2ccc(OC)cc2)c1-c1cc(OC)c(OC)c(OC)c1", "inactive"],
  ["Cc1ccc(-c2cn3cc([N+](=O)[O-])ccc3n2)cc1", "inactive"],
  ["COc1ccc(-c2nn(-c3ccc(NC(=O)c4ccc(Cl)c(C(F)(F)F)c4)cc3)cc2-c2ccncc2)cc1Cl", "inactive"],
  ["Nc1ncnc2c1c(-c1ccc(Oc3ccccc3)cc1)nn2C[C@H]1SSC[C@@H]1O", "inactive"],
  ["CC(C)[C@@H]1NC(=O)[C@]2(C)CSC(=N2)c2ccnc(c2)CNC(=O)C[C@@H](/C=C/CCS)OC1=O", "inactive"],
  ["CCN(CC)CCN1C(=O)c2c(c3c4ccccc4[nH]c3c3[nH]c4ccccc4c23)C1=O", "inactive"],
  ["CCCCCCCCCCCCCCCCCCNCc1ccc(Cl)cc1", "active"],
  ["C=C1C(=O)O[C@H]2[C@H]1CC/C(C(=O)NCCOCCOCC(=O)Nc1ccc(OC)c(C(N)=O)c1O)=C\\CC[C@@]1(C)O[C@@H]21", "inactive"],
  ["CC(Cl)(CCl)CS(=O)(=O)c1ccc(Cl)cc1 (configuration not stated)", "inactive"],
  ["S=c1ssnc1-c1ccccn1", "inactive"],
  ["COc1ccc2c(c1)nnn1c3ncccc3c(N=O)c21", "active"],
  ["N#CC(C#N)=C(C#N)c1c[nH]c2ccccc12", "inactive"],
  ["CCC(N)(C(=O)O)c1ccc(F)cc1 (configuration not stated)", "inactive"],
  ["O=C(Nc1cccc(-n2ccc3c(NC(=O)c4ccccc4)nccc32)c1)c1cccc(C(F)(F)F)c1", "active"]
]}
